- PROTOCOL_SUMMARY: protease stability score; higher = more stable; yeast display proteolysis, trypsin and chymotrypsin;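 also: log10 excess protease needed over predicted unfolded state with 0 meaning unfolded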
QUANTITY_KIND: protease stability score

>>> assay_value("DEENRKVFEEILEAKKRGDPKQLERNVDPNVKIYYGDKDFHGRSQLSKELEKVRRELHLHLDFKRIEYHGDSVDVELKVNQQHNGKPDESDRVFHARLHNGRLEHVDARDRK")
-0.019
>>> assay_value("DEEEQQKNAETADRNVKTGNWEEIKKMVDKDARVKIGDTTLHGREDVSREFKRWREDADHVEMKRVSASNGRAVVEVEYTVNGRKKKFTMIMEMHNGRIKHFRNERS")
0.251
>>> assay_value("DEDKNNRDMQDMIRAVITNDEKRVQELMDPNASVTVGDHTFKGTEAVTHLITDLRNHIDHVELNSVSVHNGKAKADMVFTVNGQHVKIEMNAQAHNGKVTQFDVSARSEEEHKKYKQ")
-0.542
>>> assay_value("DDHAVRLLNDIVRALNSGDEQKVADNADPNVRIEYGDSVITGRERLMEEIQKRRKELRFEVQVDRVREKPNHVVADVQLHFNVNGQPRNMKVEVRATWTNGKLKHMHIKMDEEQVRQLKR")
1.1
>>> assay_value("DERDMTKVFDALLKNDEDTVKDQLDEDVQVTVGDKKVHGREQAQETWERLLQRADHINMKSFTTRGDRAVAIVVARVNGHKLEWEYRFKASNGKVEHARIDFRDDDEERKFENALR")
0.024
>>> assay_value("DEREQIKKVLKRLEDIFKSGDEDKARELIDPNARMEYGDKELHGREKMARFIHELRKRIDHMEISLQDFKVKGDKLVFRAHLEAEVNGRKTSMTLRVVAHVEGDKIKIKEIQIK")
1.65
